Experiment: NCI Yeast Anticancer Drug Screen. Data for the mec2-1 strain (AID 157)
Conditions: S. cerevisiae mec2-1 strain, at 50.0 µM, stronger effect = higher value
About 79,000 compounds went through this panel and 15% of them were active in at least one assay; those are over-represented in the sample as a whole. Calls of active or inactive are those of the source. Rule as the data show it: active = growth inhibition above about 70%; inactive = the rest.
readout: growth inhibition

Nc1ccc(CCC(=O)Nc2ccc(S(=O)(=O)F)cc2)c(Cl)c1 :: 84% (active)
CC1CS1 (stereo unspecified) :: 4.8% (inactive)
Cc1ccc(P(=S)(c2ccccc2)c2ccccc2)c2ccccc12 :: 0.45% (inactive)
C=C[C](=C)[Pb]([CH2]C)([CH2]C)[CH2]C :: 4.75% (inactive)
Cc1ccc([NH-])c([NH-])c1.[Cl][Pt+2][Cl] :: 0.25% (inactive)

Here is another compound to look at.
Problem: Return reported growth inhibition. Input compound: "O=C1NCN(c2ccccc2)C12CCN(Cc1ccccc1)CC2"
Solution: -23.7% (inactive)
